# Tested on: ACHN renal
# measurement_description: NCI tumour cell line growth inhibition, 48 h
# reported TGI; entries follow

compound	TGI
COc1cc(NN=C(c2ccc(O)cc2)c2ccc(O)cc2)c([N+](=O)[O-])cc1[N+](=O)[O-]	20.3 µM
O=C1C=CC(=O)C1(Br)Br	17.3 µM
Cc1cc2c(cc1O)CC[C@@H]1[C@@H]2CC[C@]2(C)[C@@H](O)CC[C@@H]12	51.9 µM
CC(=O)NNc1nc(C)c(C(/C=C/c2ccc(Cl)cc2)=N\NS(=O)(=O)c2ccc(C)cc2)s1	> 100 µM
NC(=O)c1n[nH]n(-c2ccccc2)c1=O	> 100 µM
CCCCCCCCCCCCCC1=NCC[N+]1(CCO)Cc1ccccc1 (stereo unspecified)	3.1 µM
O=C(O)CCC1COc2ccccc2O1 (stereo unspecified)	> 10 µM
COC(=O)C1=C(C(=O)OC)C23C=CC=CC24C(C(=O)OC)=C(C(=O)OC)C4C1C3 (stereo unspecified)	> 100 µM
CC1=C(C2=C(C)C(=O)C(=O)c3cc(C)ccc32)c2ccc(C)cc2C(=O)C1=O	0.354 µM
O=C(O)c1c(-c2c3ccc(=O)cc-3oc3cc(O)ccc23)cc2ccccc2c1-c1ccccc1	> 100 µM
COC(=O)c1ccc2n1C1CC3CC(CC2C3)C1	> 100 µM
O=[N+]([O-])c1ccc(NC2OCC(O)C(O)C2O)cc1 (stereo unspecified)	> 100 µM
O=C([O-])c1ccc2c(c1)-c1nc-2nc2[n-]c(nc3nc(nc4[n-]c(n1)c1ccc(C(=O)[O-])cc41)-c1cc(C(=O)[O-])ccc1-3)c1ccc(C(=O)[O-])cc21.[Fe+2]	> 50 µM
CCC(=O)OCc1ccc2oc(=O)c(C(=O)Oc3cncc(Cl)c3)cc2c1	> 100 µM
C/C(=N\NC(=O)CC(=O)Nc1ccc(Cl)cc1)c1cc2ccccc2oc1=O	> 100 µM
Nc1nc2c(ncn2CCOC(c2ccccc2)P(=O)(O)O)c(=O)[nH]1 (stereo unspecified)	> 100 µM
CN(C)CCNC(=O)c1cccc2cc3ccccc3nc12	2.85 µM
O=C1CN(c2ccc(Cl)cc2)C(=O)CN1CCN1CC(=O)N(c2ccc(Cl)cc2)CC1=O	> 100 µM
COc1ccc(-c2cnc(-c3ccc(F)cc3)[nH]2)cc1	30.5 µM
Cc1c(O)c(=O)ccn1C1OC(CO)C(O)C1O (stereo unspecified)	> 100 µM
C=C(CN(CC(=C)C(=O)c1ccccc1)C(C)(C)C)C(=O)c1ccccc1	21.3 µM

Ref: PubChem BioAssay (NCI)
